# Test system: Wolbachia pipientis
# test: Anti-Wolbachia Cell-Based Screen
# Type: functional
# Parameters: scale not given: in the data most compounds retested in dose-response had high values
# test_context: 5 µM
Hit rate of the full screen: of about 48,000 compounds, about 13,000 (27%) showed an effect of 50% or more. The list shows a part of the results.
Would you mind telling me the reported Percent Effect of each entry?
Numbers only, in %.

Here are 2 compounds. What values of Percent Effect were reported for them?
1. CCCn1ncc2c(C(=O)Nc3cnn(CC)c3C)cc(C3CC3)nc21
2. Clc1ccc2nncc(N3CCCCC3)c2c1

A.
3.978
-7.543

###

# System: Wolbachia pipientis
# test: Anti-Wolbachia Cell-Based Screen
# Type: functional
# Parameters: scale not given: in the data most compounds retested in dose-response had high values
# test_context: 5 µM
Screen size: about 48,000 compounds; about 13,000 (27%) showed an effect of 50% or more. The list shows a part of the results.
Y if Percent Effect is below 80%. N if not; exact matches included in N.

These recorded examples may help you get a feel for the data.
In [3]: df
Out[3]:
                                   compound        tested_target  discrete_label
0  O=C1NCCO[C@H]2CN(C(=O)c3cccs3)CC[C@@H]12  Wolbachia pipientis               Y
1  CCc1nccn1C1CCCN(C(=O)c2cnn(C)c2C2CC2)C1 (stereo unspecified)  Wolbachia pipientis               Y
2  CCC(C)c1noc(C2CCN(C(=O)c3cccs3)CC2)n1 (stereo unspecified)  Wolbachia pipientis               Y
3     CC1CCN(CCNC(=O)c2ccn(-c3ccccc3)n2)CC1  Wolbachia pipientis               N
4  Cc1cnc(C(=O)N2CCCC(n3ccnc3C)C2)cn1 (stereo unspecified)  Wolbachia pipientis               Y

Q. Identify whether the compound CC(C)c1nccn1C1CCCN(C(=O)c2cnn(C)c2C2CC2)C1 (stereo unspecified) records Percent Effect below 80%.
A. Y

Q. Please determine if O=C(c1ccccc1)N1CC[C@H]2C[C@@H](c3nnc(C4CC4)o3)O[C@@H]2C1 is below 80% in terms of Percent Effect.
A. Y

Q. Strictly below 80% in Percent Effect? Cc1nc(C)n(C2CCCN(C(=O)CCCNc3ncccn3)C2)n1 (stereo unspecified)
A. N

###

# Tested on: Wolbachia pipientis
# test: Anti-Wolbachia Cell-Based Screen
# Assay type: functional
# Design: scale not given: in the data most compounds retested in dose-response had high values
# test_context: 5 µM
Hit rate of the full screen: of about 48,000 compounds, about 13,000 (27%) showed an effect of 50% or more. This is one part of the list.
Would you kindly list Percent Effect for each of these compounds?
One number for each entry, in %.

Solved entries (count: 8):
                                   compound    readout_type  test_value
0  Cc1nn(C)cc1C(C)Nc1ncnc2sccc12 (configuration not stated)  Percent Effect      -14.94
1            Cc1nc(CN(C)c2nccc(N(C)C)n2)cs1  Percent Effect      -6.579
2            COc1ccc(F)cc1CSCC(=O)N(C)C1CC1  Percent Effect      -12.98
3  CN(C(=O)c1cc(F)ccc1F)[C@@H]1CC[C@@H](O)[C@@H]1O  Percent Effect         103
4                 O=C(NCC1(CO)CC1)c1ccccc1F  Percent Effect      -18.48
5  CO[C@@H]1CCC[C@@H](N(C)C(=O)c2cc(F)ccc2F)[C@H]1O  Percent Effect       130.1
6  COC(=O)CNCC1(O)CCCN(Cc2cccc(F)c2F)C1=O (configuration not stated)  Percent Effect       2.816
7  CN(C)c1cc(C2CCCN2)ccn1 (configuration not stated)  Percent Effect       114.7

# batch: return Percent Effect for each of the 4 compounds below
1. Cc1cc(N(C)C)nc(N2CC(n3cccn3)C2)n1
2. COC(=O)CCN1CCC(C(=O)c2cc(F)ccc2F)CC1
3. COc1ccc(F)cc1C(=O)N(C)[C@@H]1CC[C@@H](O)[C@@H]1O
4. CN(C(=O)c1ccccc1F)[C@@H]1CC[C@@H](O)[C@@H]1O

A.
[-0.4027, -15.76, 132.3, 107.7]

###

# Test system: Wolbachia pipientis
# test: Anti-Wolbachia Cell-Based Screen
# Format: functional
# Set-up: scale not given: in the data most compounds retested in dose-response had high values
# test_context: 5 µM
Among all 48,000 compounds or so, about 13,000 (27%) showed an effect of 50% or more. The list shows a part of the results.
For each entry below, report its Percent Effect value.
Numbers only, in %.

Worked cases, Percent Effect given:
In [3]: df
Out[3]:
                                   molecule    readout_type  unit_abbreviation  test_value
0      CCCNC(=O)CN(C)C1CCN(c2ccc(Cl)cc2)CC1  Percent Effect                  %      -1.782
1  CSC(C)C(=O)N(C)C1CCN(c2ccc(Cl)cc2)CC1 (stereo unspecified)  Percent Effect                  %      -5.322
2  CN(C(=O)Nc1ccncc1)C1CCN(c2ccc(Cl)cc2)CC1  Percent Effect                  %       99.54

Could I get Percent Effect for every one of these entries?
1. CN(C)S(=O)(=O)N1CC[C@]2(O)CCN(CCCc3cccnc3)C[C@@H]2C1
2. COc1cc(C2C3=C(COC3=O)Nc3[nH]nc(C)c32)cc2c1OCO2 (stereo unspecified)
3. CN(CC(=O)N(C)C1CC1)C1CCN(c2ccc(Cl)cc2)CC1
4. CN(C)S(=O)(=O)N1CC[C@]2(O)CCN(c3ncccn3)C[C@@H]2C1
5. CCOC(C)C(=O)N(C)C1CCN(c2ccc(OC)cc2)CC1 (stereo unspecified)
6. Cc1cc(N2CCC(N(C)C(=O)Nc3ccccc3)CC2)nc(C)n1

A.
99.63
-6.627
-1.318
8.402
-2.729
1.821

Record Percent Effect per entry; entries follow.
1. CC(NCCN1CCC(N(C)C)CC1)c1ccc(F)cc1N(C)C (stereo unspecified)
2. CS(=O)(=O)N1CC[C@]2(O)CCN(c3ccnc(N)n3)C[C@@H]2C1

A.
-1.854
-18.71

###

Give measured Percent Effect for each item. Keep answers brief.
# System: Wolbachia pipientis
# test: Anti-Wolbachia Cell-Based Screen
# Format: functional
# Design: scale not given: in the data most compounds retested in dose-response had high values
# test_context: 5 µM
Screen size: about 48,000 compounds; about 13,000 (27%) showed an effect of 50% or more. The list shows a part of the results.
One number for each entry, in %.

Look over these answered cases.
                                   compound  test_value
0  Cc1nccc(NCc2cncc3c2CCN(CC2CCOC2)C3)n1.Cl.Cl (centres undefined)       113.7
1  Cn1ccc(C(=O)N2CCCC(c3cc4cccnc4c(O)n3)C2)n1 (centres undefined)       126.9
2  Cl.Cl.c1csc(CN2CCc3c(CNc4nncs4)cncc3C2)c1       13.01
3    Cc1cccc(C(C)(C)CNC(=O)CN(C)c2cnccn2)c1       2.301
4  CCC(O)CN1CCN(C(=O)c2cccc3[nH]ncc23)CC1 (centres undefined)       10.02
5  CCCC(=O)N1CCCC(c2cc3cccnc3c(O)n2)C1 (centres undefined)         167
6  CCN(C)CC1CCN(C(=O)Nc2ccc(-c3cc[nH]n3)cc2)C1 (centres undefined)       2.001
7      CCOC(=O)CCC(=O)N1CCC(Oc2ncccc2Cl)CC1       1.106

Parameters: items (list). Returns: Percent Effect for each item.
1. Cc1ccc(OC2(C(=O)O)CCN(C(=O)c3cccs3)CC2)cn1
2. Cc1noc(C)c1CN(Cc1ccccc1)C(C)C
3. CCC(=O)NCC(=O)Nc1ncc(I)cc1C
4. Cc1cc(C(=O)N2CCC(c3nccn3CCCN(C)C)CC2)no1

A.
-10.49
-1.884
-1.135
1.64

# per-item lookup of Percent Effect; items listed below
1. CCNC(=O)N1CCN(C(=O)c2cc(Cl)cc3cccnc23)CC1
2. O=C(c1ccsc1)N1CCC2(CC1)CCN(S(=O)(=O)C1CC1)CC2
3. Cc1ccc(C(=O)NCCNC(=O)c2cncnc2C)cc1F
4. CC(C)(C)c1ccc(-c2n[nH]c3c2CN(CC2CCOC2)CC3)cc1 (centres undefined)
5. COc1ccccc1CNC(C)c1cnc2cc(C)nn2c1C (centres undefined)
6. Cl.O=C(CCc1cccc(C2CCNCC2)n1)N1CCCCC1

A.
1. -12.31
2. 99.84
3. -5.207
4. 5.17
5. -25.88
6. 116.4

# batch: return Percent Effect for each of the 6 compounds below
1. CS(=O)(=O)N1CCC2(CC1)CC(OCC1CCOCC1)CO2 (centres undefined)
2. CC(CCSc1ccccc1)N1CCN(C(=O)c2cccs2)CC1 (centres undefined)
3. Cl.NC(=O)CCc1cccc(C2CCNCC2)n1
4. Cc1nccc(NCc2cncc3c2CCN(CCN(C)C)C3)n1
5. CS(=O)(=O)N1CCC2(CCN(C(=O)c3cccs3)CC2)CC1
6. Cc1cc(CNC(=O)c2cc(COc3cncc(Cl)c3)on2)n[nH]1

A.
[-4.18, 0.564, 115.3, 100, 95.21, -4.866]
